Values from patent US7521047

biological target: chimeric 0401-IE class II molecule on cells of transgenic mice (human/murine chimera); experiment: cell-based or functional assay
Measurement Label: IC50 of inhibition of IL-2 secretion from T-Hyb 1 cells

# input State the recorded IC50 of inhibition of IL-2 secretion from T-Hyb 1 cells for this entry: MS-GPC-8-10-57 IgG4 (antibody, V domains shown, also called 1C7277; IgG form of MS-GPC-8-10-57) VH: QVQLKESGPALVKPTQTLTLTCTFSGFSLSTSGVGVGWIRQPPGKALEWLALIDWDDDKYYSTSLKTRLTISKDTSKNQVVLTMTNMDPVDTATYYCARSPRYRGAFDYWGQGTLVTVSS VL: DIVLTQPPSVSGAPGQRVTISCSGSESNIGNNYVQWYQQLPGTAPKLLIYDNNQRPSGVPDRFSGSKSGTSASLAITGLQSEDEADYYCQSYDLIRHVFGGGTKLTVLG
# output 310 pM
